experimental-target: Calcium-dependent protein kinase 1 (Plasmodium falciparum (isolate 3D7)) (UniProt P62344)
Sequence (P62344 whole entry, looked up): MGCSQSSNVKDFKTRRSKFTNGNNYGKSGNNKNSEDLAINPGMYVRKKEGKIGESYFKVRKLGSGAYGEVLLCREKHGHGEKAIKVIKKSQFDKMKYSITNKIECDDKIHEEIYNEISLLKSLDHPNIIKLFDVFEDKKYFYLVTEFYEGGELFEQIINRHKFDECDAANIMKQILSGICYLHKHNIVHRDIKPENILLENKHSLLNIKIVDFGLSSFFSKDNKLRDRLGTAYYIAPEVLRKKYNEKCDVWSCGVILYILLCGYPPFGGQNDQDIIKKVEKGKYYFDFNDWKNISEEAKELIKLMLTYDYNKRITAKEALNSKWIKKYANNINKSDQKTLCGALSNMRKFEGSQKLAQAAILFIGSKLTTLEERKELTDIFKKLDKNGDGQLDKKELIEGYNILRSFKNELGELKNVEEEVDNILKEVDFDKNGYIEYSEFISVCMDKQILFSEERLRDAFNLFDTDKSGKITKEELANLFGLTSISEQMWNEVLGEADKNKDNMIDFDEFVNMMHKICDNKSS
assay-remarks: PfCDPK1 kinase inhibitors, biochemical, TCAMS library (AID 1159585);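 note: inhibitors leave more ATP so luminescence rises with inhibition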
test-parameters: recombinant PfCDPK1, Kinase-Glo ATP depletion luminescence
Results with a measured potency or affinity are listed apart. Activity calls are given as the source filed them. No cut-off is given here; in the data, nearly all actives have IC50 up to about 0.98 µM.

>  <compound>
O=C(Nc1ccc(C(F)(F)F)cc1)NC1CCN(c2ccnc3cc(Cl)ccc23)CC1

>  <outcome>
inactive

$$$$
>  <compound>
COc1cc(NC(=O)Nc2cc(C)nc3ccccc23)cc(OC)c1

>  <outcome>
inactive

$$$$
>  <compound>
CC(C)Cn1c2ccccc2c2nc3nc(N)nc(N)c3nc21

>  <outcome>
inactive

$$$$
>  <compound>
COc1cc2c(cc1NS(=O)(=O)c1ccc(OCc3ccc(Br)cc3)cc1)CCN(C1CCC1)CC2

>  <outcome>
inactive

$$$$
>  <compound>
CCCCCCN1CCC(NCc2cccc(-n3ccnc3)c2)CC1

>  <outcome>
inactive

$$$$
>  <compound>
CC(=O)Nc1cccc(C(=O)Nc2cccc(-c3cccc(-c4nc5ccc(F)cc5[nH]4)c3)c2)c1

>  <outcome>
inactive

$$$$
>  <compound>
OC(CNc1ccnc(Nc2cccc(Cl)c2)n1)c1ccc(C(F)(F)F)cc1 (centres undefined)

>  <outcome>
inactive

$$$$
>  <compound>
CC(=O)Nc1cc(C(=O)Nc2ccc(C3=NCCN3)cc2)ccc1C(=O)Nc1ccc(C2=NCCN2)cc1

>  <outcome>
inactive

$$$$
>  <compound>
N#Cc1ccccc1Sc1ccccc1C(=O)Nc1ccc2ccccc2n1

>  <outcome>
inactive

$$$$
>  <compound>
CCN1CCN(c2cc(C)c3cc(NC(=O)c4cncc(Br)c4)ccc3n2)CC1

>  <outcome>
inactive

$$$$
>  <compound>
CC1(C)N=C(N)N=C(N)N1OCCCOc1cc(Cl)ccc1Cl

>  <outcome>
inactive

$$$$
>  <compound>
CCCCC(NCC)c1ccc(OCCOc2ccc(C(CCCC)NCC)cc2)cc1 (centres undefined)

>  <outcome>
inactive

$$$$
>  <compound>
CCn1c2ccccc2c2cc(Cc3cnc(N)nc3N)ccc21

>  <outcome>
inactive

$$$$
>  <compound>
CCCNc1ccc2nccc(CCN3CCC(NCc4ccc5c(c4)NC(=O)CS5)CC3)c2n1

>  <outcome>
inactive

$$$$
>  <compound>
CO/C(=C\C=C\c1cc2cc(Cl)c(Cl)cc2[nH]1)C(=O)NCCCCN1CCN(c2ccccc2OC)CC1

>  <outcome>
inactive

$$$$
>  <compound>
COc1ccc2ncc(F)c(CCN3CC[C@@H](CNCc4cc5c(cn4)OCS5)C3)c2n1

>  <outcome>
inactive

$$$$
>  <compound>
CCOc1cc(Cc2cnc(N)nc2N)cc(OCC)c1OCCCCC(=O)OC

>  <outcome>
inactive

$$$$
>  <compound>
CC[C@H](C)CNC(=O)c1cncc(-c2cccc(CNCCCc3ccccc3)c2)c1

>  <outcome>
inactive

$$$$
>  <compound>
CCN(CC)C(=NCCCCCCN=C(/N=C(/N)Nc1ccc(C)cc1)N(CC)CC)/N=C(/N)Nc1ccc(C)cc1

>  <outcome>
inactive

$$$$
>  <compound>
COc1ccc2nccc(N3CCN(CCNCc4ccc5c(n4)NC(=O)CO5)CC3)c2c1

>  <outcome>
inactive

$$$$
>  <compound>
Cc1cc(N(CCCN(C)C)Cc2cc(F)cc(F)c2)nc(Nc2ccc(Cl)cc2)n1

>  <outcome>
inactive

$$$$
>  <compound>
COc1ccccc1CCNc1nc(C)cc(NCCC(=O)NCCOc2ccccc2)n1

>  <outcome>
inactive

$$$$
>  <compound>
CCCCCCCCCCNCC(O)c1ccc(O)c(C(=O)OC)c1 (centres undefined)

>  <outcome>
inactive

$$$$
>  <compound>
CNCCNCc1cccc(-c2ccc(-c3nc4ccc(C(F)(F)F)cc4[nH]3)s2)c1

>  <outcome>
inactive

$$$$
>  <compound>
COc1ccc(NC(=O)[C@H](Cc2ccccc2)Nc2cc(C)nc(NCc3ccccc3C)n2)cc1

>  <outcome>
inactive

$$$$
>  <compound>
c1ccc2c(Nc3ccc(Cc4ccc(Nc5c6ccccc6nc6ccccc56)cc4)cc3)c3ccccc3nc2c1

>  <outcome>
inactive

$$$$
>  <compound>
CCOC(=O)NC1=NC(C)(C)N(OCc2ccc(Cl)c(Cl)c2)C(NC(=O)OCC)=N1

>  <outcome>
inactive

$$$$
>  <compound>
O=C(NCc1ccc(C(=O)N2CCC(N3CCCCC3)CC2)cc1)c1cc(-c2cccc(C(F)(F)F)c2)ccc1O

>  <outcome>
inactive

$$$$
>  <compound>
O=C(Nc1ccsc1)Nc1cccc(-c2cccc(-c3nc4ccccc4[nH]3)c2)c1

>  <outcome>
inactive

$$$$
>  <compound>
COc1ccc2nc3cc(Cl)ccc3c(NCCc3ccccc3)c2c1

>  <outcome>
inactive

$$$$
>  <compound>
COCCn1c(-c2nc(-c3ccc(F)cc3)cnc2N)nc2ccccc21

>  <outcome>
inactive

$$$$
>  <compound>
O=C(Nc1cccc(C(F)(F)F)c1)c1cccc(S(=O)(=O)NC2CCN(CC3CCCCC3)C2)c1 (centres undefined)

>  <outcome>
inactive

$$$$
>  <compound>
COc1ccc2nccc([C@@H](O)CN3CCC(NCc4ccc5scnc5c4)CC3)c2c1

>  <outcome>
inactive

$$$$
>  <compound>
CC(=O)N/N=C/[C@H](CCc1ccccc1)NC(=O)[C@H](CC(C)C)NC(=O)c1ccc(F)cc1

>  <outcome>
inactive

$$$$
>  <compound>
CN(C)CCNC(=O)[C@H](Cc1ccccc1)NC(=O)c1ccc(O)c(-c2ccc(Cl)c(Cl)c2)c1

>  <outcome>
inactive

$$$$
>  <compound>
Cc1[nH]c(C)c(-c2ccc(-c3ccc(OC(F)(F)F)cc3)nc2)c(=O)c1Br

>  <outcome>
inactive

$$$$
>  <compound>
Cc1cnc(C(=O)Nc2cccc(-c3ccc(-c4nc5ccc(C(F)(F)F)cc5[nH]4)s3)c2)cn1

>  <outcome>
inactive

$$$$
>  <compound>
CC1(C)C=C(c2ccncc2)c2cc(Cl)ccc2O1

>  <outcome>
inactive

$$$$
>  <compound>
N#Cc1ccc(N[C@@H](CC2CCCCC2)C(=O)Nc2ccc(-c3ccccc3)cc2)c2ccccc12

>  <outcome>
inactive

$$$$
